Test system: σ receptors
protocol_details: Radioligand binding assay, σ receptors
test_context: rat cerebral cortex, [3H]DTG 8 nM
Lab note: compare σ [%] with 70%, writing Met if less and Not met if equal or more.

compound: O=S(=O)(NC1CCN(CCCc2noc3cc(F)ccc23)C1)c1ccc(Cl)c(F)c1 (centres unmarked) [Compound 11]
classification: Not met

compound: Cc1c(S(=O)(=O)NCC2CCN(CCCc3noc4cc(F)ccc34)C2)sc2ccc(Cl)cc12 (centres unmarked) [Compound 238]
classification: Not met

compound: Cc1cc(S(=O)(=O)NC2CCN(CCCc3noc4cc(F)ccc34)C2)c(C)s1 (centres unmarked) [Compound 221]
classification: Not met

compound: O=S(=O)(NC1CCN(CCCc2c[nH]c3ccc(Cl)cc23)C1)c1cccc(Cl)c1 (centres unmarked) [Compound 84]
classification: Met

compound: O=S(=O)(N[C@H]1CCN(CCCc2noc3cc(F)ccc23)C1)c1csc2ccccc12 [Compound 225]
classification: Not met

compound: O=S(=O)(NC1CN(CCOc2cccc3c2OCCO3)C1)c1ccc(Cl)cc1 [Compound 92]
classification: Met

compound: O=S(=O)(NC1CCN(CCCc2c[nH]c3ccc(F)cc23)C1)c1cccc2ccccc12 (centres unmarked) [Compound 79]
classification: Met

compound: O=S(=O)(NCC1CCN(CCCc2noc3cc(F)ccc23)C1)c1ccc2ccccc2c1 (centres unmarked) [Compound 240]
classification: Not met

compound: Cc1c(S(=O)(=O)N[C@H]2CCN(CCCc3noc4cc(F)ccc34)C2)sc2ccc(Cl)cc12 [Compound 205]
classification: Not met

compound: O=S(=O)(NC1CN(CCOc2cccc3[nH]ccc23)C1)c1ccc(F)cc1 [Compound 46]
classification: Met

compound: COc1ccc2cc(S(=O)(=O)N[C@H]3CCN(CCCc4noc5cc(F)ccc45)C3)ccc2c1 [Compound 231]
classification: Not met

====

assayed_system: α2C adrenergic receptors (Homo sapiens, UniProt P18825)
Construct: expressed in transfected cells; host or cells: CHO cells
Sequence (P18825 whole entry): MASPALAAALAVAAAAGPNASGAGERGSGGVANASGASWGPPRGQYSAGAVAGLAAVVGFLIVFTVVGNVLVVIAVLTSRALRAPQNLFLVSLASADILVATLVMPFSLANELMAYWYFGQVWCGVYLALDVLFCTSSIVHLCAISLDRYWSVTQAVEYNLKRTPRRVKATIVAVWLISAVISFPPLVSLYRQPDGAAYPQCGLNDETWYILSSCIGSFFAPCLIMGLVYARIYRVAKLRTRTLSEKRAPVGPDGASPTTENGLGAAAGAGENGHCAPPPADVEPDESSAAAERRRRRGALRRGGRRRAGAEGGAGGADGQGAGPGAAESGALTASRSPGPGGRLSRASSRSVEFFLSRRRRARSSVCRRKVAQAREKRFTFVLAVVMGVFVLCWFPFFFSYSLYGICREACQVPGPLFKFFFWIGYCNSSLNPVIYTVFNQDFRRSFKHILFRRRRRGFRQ
protocol_details: Radioligand binding assay, adrenergic α2C receptors
test_context: test compound 1×10^−6 M
measured_parameter: α2C [%] (%)

molecule: O=S(=O)(NC1CCN(CCOc2cccc3ccccc23)C1)c1cccc(O)c1 (centres unmarked) [Compound 115]
assayed_system: α2C adrenergic receptors (Homo sapiens, UniProt P18825)
endpoint_unit: %
test_value: 90

molecule: O=S(=O)(NC1CN(CCOc2cccc3c2OCCO3)C1)c1ccc(Cl)cc1 [Compound 92]
assayed_system: α2C adrenergic receptors (Homo sapiens, UniProt P18825)
endpoint_unit: %
test_value: 76

molecule: Cc1cccc(S(=O)(=O)NC2CN(CCOc3cccc4c3OCCO4)C2)c1 [Compound 93]
assayed_system: α2C adrenergic receptors (Homo sapiens, UniProt P18825)
endpoint_unit: %
test_value: 84

molecule: CC1(C)Cc2cccc(OCCN3CCC(NS(=O)(=O)c4ccc5ccccc5c4)CC3)c2O1 [Compound 110]
assayed_system: α2C adrenergic receptors (Homo sapiens, UniProt P18825)
endpoint_unit: %
test_value: 98

molecule: O=S(=O)(NC1CN(CCOc2cccc3c2OCCO3)C1)c1cccc2ccccc12 [Compound 94]
assayed_system: α2C adrenergic receptors (Homo sapiens, UniProt P18825)
endpoint_unit: %
test_value: 106

molecule: O=S(=O)(NC1CCN(CCOc2cccc3[nH]ccc23)CC1)c1ccccc1 [Compound 55]
assayed_system: α2C adrenergic receptors (Homo sapiens, UniProt P18825)
endpoint_unit: %
test_value: 99

molecule: CC1(C)Cc2cccc(OCCN3CCC(NS(=O)(=O)c4cccc(O)c4)CC3)c2O1 [Compound 109]
assayed_system: α2C adrenergic receptors (Homo sapiens, UniProt P18825)
endpoint_unit: %
test_value: 98

molecule: O=S(=O)(NC1CN(CCOc2cccc3c2OCCO3)C1)c1cccc(F)c1 [Compound 89]
assayed_system: α2C adrenergic receptors (Homo sapiens, UniProt P18825)
endpoint_unit: %
test_value: 69
